Target: FAAH (Homo sapiens, UniProt O00519)
Assay: Assay Method 1: FAAH assay, 3H-anandamide hydrolysis in homogenate of T84 cells or SK-N-MC cells transfected with human FAAH
Where a name gives a salt, the structure may show the parent alone.
# IC50 per record follows

OC(CNc1cc(-c2cccc(Cl)c2)ncn1)c1ccccc1 (stereo not shown) = 467 nM

Consider the molecule CC(C)COc1ccc(-c2cc(NC[C@H](O)c3ccccc3)ncn2)cc1 [Example 37, trifluoroacetic acid salt] and give its measured IC50.
400 nM

Given the molecule COc1ccccc1C(O)CNc1cc(-c2ccc(OC(F)(F)F)cc2)ncn1 (stereo not shown) , what is its reported IC50?
93 nM

Which IC50 value is on record for OC(CNc1cc(-c2ccc(C(F)(F)F)c(Cl)c2)ncn1)c1ccc(-c2ccccc2)cc1 (stereo not shown) ?
10 nM

###

Molecular target: FAAH (Homo sapiens, UniProt O00519)
Sequence (O00519 1-579): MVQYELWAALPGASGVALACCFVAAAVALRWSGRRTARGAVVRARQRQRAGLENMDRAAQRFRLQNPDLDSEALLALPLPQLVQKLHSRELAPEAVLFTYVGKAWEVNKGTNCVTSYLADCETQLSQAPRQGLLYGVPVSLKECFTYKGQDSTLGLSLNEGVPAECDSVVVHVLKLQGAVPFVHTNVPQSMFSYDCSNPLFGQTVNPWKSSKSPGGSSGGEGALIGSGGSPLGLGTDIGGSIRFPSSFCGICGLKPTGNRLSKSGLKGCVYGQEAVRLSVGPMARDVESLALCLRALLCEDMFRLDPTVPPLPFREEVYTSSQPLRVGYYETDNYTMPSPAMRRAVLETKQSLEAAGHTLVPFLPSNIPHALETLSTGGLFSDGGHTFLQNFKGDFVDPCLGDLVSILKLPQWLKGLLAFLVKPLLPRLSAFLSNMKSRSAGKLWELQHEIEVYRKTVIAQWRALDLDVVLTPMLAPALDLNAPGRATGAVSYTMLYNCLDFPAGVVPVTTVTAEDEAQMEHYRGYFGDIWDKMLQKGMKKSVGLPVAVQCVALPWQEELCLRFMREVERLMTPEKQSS
Test: Assay Method 1: FAAH assay, 3H-anandamide hydrolysis in homogenate of T84 cells or SK-N-MC cells transfected with human FAAH
Counter-ions that a name gives are not always drawn.
TEST_READOUT: IC50 (nM)
Kindly provide the numeric value in nM only, without the unit symbol.

Solved cases below.
OC(CNc1cc(-c2ccc(C(F)(F)F)c(Cl)c2)ncn1)c1cc(-c2ccc(Cl)c(Cl)c2)no1 (stereo not shown) = 22
O[C@@H](CNc1cc(-c2ccc(C(F)(F)F)c(Cl)c2)nc(C(F)(F)F)n1)c1ccccc1 [Example 93, trifluoroacetic acid salt] = 183

Bench note: what IC50 did N#Cc1ccc(C(O)CNc2cc(-c3ccc(C(F)(F)F)c(Cl)c3)ncn2)cc1 (stereo not shown) show?
19

Using the record for O[C@@H](CNc1cc(-c2ccc(C(F)(F)F)c(Cl)c2)nc(NC2CC2)n1)c1ccccc1 [Example 162, trifluoroacetic acid salt] , report its IC50.
570

Which IC50 value is on record for COc1ccc(-c2cc(NC[C@H](O)c3ccccc3)ncn2)cc1F ?
14

Give its IC50 value. Item: CN(C)c1nc(NC[C@H](O)c2ccccc2)cc(-c2ccc(C(F)(F)F)c(Cl)c2)n1 [Example 101, trifluoroacetic acid salt]
32

###

Biological target: FAAH (Homo sapiens)
Assay: Assay Method 1: FAAH assay, 3H-anandamide hydrolysis in homogenate of T84 cells or SK-N-MC cells transfected with human FAAH
Counter-ions that a name gives are not always drawn.
Below is a list of entries, each paired with its recorded IC50 value.
# number only, unit nM dropped from output

CN(C)c1ccc(-c2cc(NC[C@H](O)c3ccccc3)ncn2)cc1 [Example 65] = 38
O[C@@H](CNc1cc(-c2ccc(F)c(Cl)c2)ncn1)c1ccccc1 [Example 83, trifluoroacetic acid salt] = 210
N#Cc1cc(-c2cc(NC[C@H](O)c3ccccc3)ncn2)ccc1F [Example 89, trifluoroacetic acid salt] = 1600
O=[N+]([O-])c1ccc(-c2cc(NCC(O)c3ccccc3)ncn2)cc1 (stereo not shown) [Example 5, trifluoroacetic acid salt] = 132
OC(CNc1cc(-c2ccc3ccccc3c2)ncn1)c1ccccc1 (stereo not shown) [Example 235] = 21
CC(O)c1ccc(-c2cc(NC[C@H](O)c3ccccc3)ncn2)cc1F (stereo partly shown) [Example 129, trifluoroacetic acid salt] = 16
CC(=O)c1ccc(-c2cc(NC[C@H](O)c3ccccc3)ncn2)cc1 [Example 17] = 12
OC(CNc1cc(-c2ccc(C(F)(F)F)c(Cl)c2)ncn1)c1cc2ccccc2s1 (stereo not shown) [Example 196] = 108

// lookup IC50 for O[C@@H](CNc1cc(-c2cc3cc(OC(F)(F)F)ccc3s2)ncn1)c1ccccc1 [Example 185, trifluoroacetic acid salt]
20

If you can, please state the reported IC50 value of O[C@@H](CNc1cc(-c2ccc(C(F)(C(F)(F)F)C(F)(F)F)cc2)ncn1)c1ccccc1 [Example 219] .
2000

Data request, read-out IC50, for N#Cc1ccc(-c2cc(NCC(O)c3ccccc3)ncn2)cc1 (stereo not shown) [Example 226]
341

// IC50 lookup, key: C[S+]([O-])c1nc(NC[C@H](O)c2ccccc2)cc(-c2ccc(C(F)(F)F)c(Cl)c2)n1 (stereo partly shown) [Example 139]
2000

What value of IC50 has been recorded for this entry: CC(C)c1nc(NC[C@H](O)c2ccccc2)cc(-c2ccc(Cl)c(Cl)c2)n1 [Example 137]
920

Reported IC50, molecule OC(CNc1cc(-c2ccc(C(F)(F)F)c(Cl)c2)ncn1)c1cccc(C(F)(F)F)c1 (stereo not shown) [Example 135, trifluoroacetic acid salt] : ____
100

Need IC50, item Cn1c(-c2cc(NC[C@H](O)c3ccccc3)ncn2)cc2ccccc21 [Example 55, trifluoroacetic acid salt]
20

###

Overview of reported pIC50 across a group of compounds:
Biological target: Rat FAAH-1 (Rattus norvegicus)
Sequence (P97612 whole entry): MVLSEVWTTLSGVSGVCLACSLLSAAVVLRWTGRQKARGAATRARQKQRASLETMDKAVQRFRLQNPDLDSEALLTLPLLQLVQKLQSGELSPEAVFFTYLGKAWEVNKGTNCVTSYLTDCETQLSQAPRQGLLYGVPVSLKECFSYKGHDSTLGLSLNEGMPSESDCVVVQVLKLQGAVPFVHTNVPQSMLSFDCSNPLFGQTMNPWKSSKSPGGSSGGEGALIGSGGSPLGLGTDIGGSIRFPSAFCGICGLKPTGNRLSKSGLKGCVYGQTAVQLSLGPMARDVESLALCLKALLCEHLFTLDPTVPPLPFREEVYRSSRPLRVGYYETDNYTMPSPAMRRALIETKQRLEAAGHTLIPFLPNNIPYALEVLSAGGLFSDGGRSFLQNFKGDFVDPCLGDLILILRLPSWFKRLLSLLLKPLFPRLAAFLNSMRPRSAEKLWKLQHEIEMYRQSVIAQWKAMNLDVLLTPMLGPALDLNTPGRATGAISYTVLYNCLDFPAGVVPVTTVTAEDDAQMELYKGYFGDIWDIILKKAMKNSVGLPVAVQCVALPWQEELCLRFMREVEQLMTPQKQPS
Assay: Assay Method 2: rat FAAH-1 assay, 3H-anandamide hydrolysis in homogenate of SK-N-MC cells transfected with rat FAAH
Where a name gives a salt, the structure may show the parent alone.
To interpret pIC50, take it as minus log10 of a concentration measured in moles per litre.

O[C@@H](CNc1cc(-c2ccc3[nH]ccc3c2)ncn1)c1ccccc1 [Example 85, trifluoroacetic acid salt] = 5.30
OC(CNc1cc(-c2ccc(OC(F)(F)F)cc2)ncn1)c1ccc(C(F)(F)F)cc1 (stereo not shown) = 6.82
O[C@@H](CNc1cc(-c2ccc(F)c(Cl)c2)ncn1)c1ccccc1 [Example 83, trifluoroacetic acid salt] = 6.18

Now, please, on to the next compound.
For the compound shown here, Cn1c(-c2cc(NC[C@H](O)c3ccccc3)ncn2)cc2ccccc21 [Example 55, trifluoroacetic acid salt] , give the reported pIC50.
5.77

###

Target: FAAH (Homo sapiens, UniProt O00519)
Experiment: Assay Method 1: FAAH assay, 3H-anandamide hydrolysis in homogenate of T84 cells or SK-N-MC cells transfected with human FAAH
Counter-ions that a name gives are not always drawn.
# key: entry, value: IC50
Just the number please, in nM, no unit attached.

// worked examples, IC50 included
OC(CNc1cc(-c2ccc(OC(F)(F)F)cc2)ncn1)c1ccc(Cl)cc1 (centres unmarked) [Example 109] = 150
CNCCNc1nc(NC[C@H](O)c2ccccc2)cc(-c2ccc(C(F)(F)F)c(Cl)c2)n1 [Example 163, hydrochloride salt] = 2000

Need IC50, item CS(=O)(=O)c1ccc(-c2cc(NC[C@H](O)c3ccccc3)ncn2)cc1 [Example 66]
73

Item Cc1cc(C)cc(-c2cc(NC[C@H](O)c3ccccc3)ncn2)c1 [Example 40, trifluoroacetic acid salt] has what recorded IC50?
766

Returns the measured IC50 for the input compound. Input: OC(CNc1cc(-c2ccc(Cl)cc2)ncn1)c1ccccc1 (centres unmarked) [Example 2]
350

So what does the record say about IC50 for O[C@@H](CNc1cc(-c2ccc3cc[nH]c3c2)ncn1)c1ccccc1 [Example 53, trifluoroacetic acid salt] ?
765

# get_value(readout='IC50', item= O[C@@H](CNc1cc(-c2cc(F)cc(F)c2)ncn1)c1ccccc1 [Example 58, trifluoroacetic acid salt] )
104

// returns reported IC50 for input Cc1cc(-c2cc(NC[C@H](O)c3ccccc3)ncn2)ccc1Cl [Example 26, trifluoroacetic acid salt]
52

###

Molecular target: FAAH (Homo sapiens)
Test: Assay Method 1: FAAH assay, 3H-anandamide hydrolysis in homogenate of T84 cells or SK-N-MC cells transfected with human FAAH
Where a name gives a salt, the structure may show the parent alone.
Quick list: log10(IC50) per entry.
On a log10 scale: recorded IC50, unit µM.

Worked cases, log10(IC50) given:
CN(C)CCNc1nc(NC[C@H](O)c2ccccc2)cc(-c2ccc(C(F)(F)F)c(Cl)c2)n1 [Example 158, trifluoroacetic acid salt] = 0.54
C[C@@H](Nc1cc(-c2ccc(OC(F)(F)F)cc2)ncn1)[C@@H](O)c1ccccc1 = 0.18
O[C@@H](CNc1cc(-c2ccc3c(C(F)(F)F)noc3c2)ncn1)c1ccccc1 = -2.00
CCOc1ccc(-c2cc(NCC(O)c3ccccc3)ncn2)cc1 (stereo not shown) = -1.47
Cc1ccc(-c2cc(NC[C@H](O)c3ccccc3)ncn2)cc1F [Example 20, trifluoroacetic acid salt] = -1.49

Dear colleague, I am looking for the recorded log10(IC50) of the following molecule: COc1nc(NC[C@H](O)c2ccccc2)cc(-c2ccc(C(F)(F)F)c(Cl)c2)n1 [Example 164, trifluoroacetic acid salt]
-1.82

# query: log10(IC50) of entry OCCNc1nc(NC[C@H](O)c2ccccc2)cc(-c2ccc(C(F)(F)F)c(Cl)c2)n1 [Example 160, trifluoroacetic acid salt]
-0.82

The origin of these recorded values is patent US8598202B2.
